Hey, just so you know, these numbers are from ChEMBL document CHEMBL3259660.

- MEASUREMENT DESCRIPTION: Cytotoxicity against CHL cells assessed as cell viability after 24 hrs by MTT assay
- Type: cell-based, Cricetulus griseus
- EXPERIMENTAL PARAMETERS: chinese hamster
Let's look at some compounds and their measured IC90 at 24 h.
The reply should be a number in µg/mL, with the unit left off.

1) Cc1cc(O)c2c(c1)C(=O)c1c(I)c(O)c(I)c(O)c1C2=O; 256
2) Cc1cc2c(c(O)c1I)C(=O)c1c(O)c(I)c(O)c(I)c1C2=O; 128
3) Cc1c(Cl)c(O)c2c(c1Cl)C(=O)c1c(Cl)c(O)cc(O)c1C2=O; 256

*Q* Which IC90 at 24 h reading was recorded for the compound "Cc1cc(O)c2c(c1)C(=O)c1c(Br)c(O)c(Br)c(O)c1C2=O" ?
*A* 128

###

- MEASUREMENT DESCRIPTION: In vivo acute toxicity in iv dosed Kunming mouse
- Format: organism-based
METRIC NAME: LD50
Write your answer as a measured quantity: the number, then the unit.

*Q* Which LD50 reading was recorded for the compound "Cc1cc(O)c2c(c1)C(=O)c1c(I)c(O)c(I)c(O)c1C2=O" ?
*A* 110 mg/kg

###

- Test system: Bacillus cereus
- MEASUREMENT DESCRIPTION: Antibacterial activity against Bacillus cereus ATCC 10231 assessed as growth inhibition by agar dilution assay
- Format: functional
The label is condition met for MIC below 8 µg/mL and condition not met for MIC equal to or exceeding 8 µg/mL.

Examples with answers:
1) CN[C@H](CC(C)C)C(=O)N[C@H]1C(=O)N[C@@H](CC(N)=O)C(=O)N[C@H]2C(=O)N[C@H]3C(=O)N[C@H](C(=O)N[C@H](C(=O)O)c4cc(O)cc(O)c4-c4cc3ccc4O)[C@H](O)c3ccc(c(Cl)c3)Oc3cc2cc(c3O[C@@H]2O[C@H](CO)[C@@H](O)[C@H](O)[C@H]2O[C@H]2C[C@](C)(N)[C@H](O)[C@H](C)O2)Oc2ccc(cc2Cl)[C@H]1O.Cl [VANCOMYCIN HYDROCHLORIDE]; condition met
2) Cc1cc(O)c2c(c1)C(=O)c1c(Cl)c(O)c(I)c(O)c1C2=O; condition not met
3) Cc1cc(O)c2c(c1)C(=O)c1c(I)c(O)c(I)c(O)c1C2=O; condition met

*Q* Quick check: does "Cc1cc(O)c2c(c1)C(=O)c1cc(O)c(I)c(O)c1C2=O" have MIC under 8 µg/mL?
*A* condition not met

###

- Tested on: Bacillus cereus
- MEASUREMENT DESCRIPTION: Antibacterial activity against Bacillus cereus ATCC 10231 assessed as growth inhibition by agar dilution assay
- Format: functional
METRIC NAME: MIC (µg/mL)
The reply should be a number in µg/mL, with the unit left off.

1. Cc1cc2c(c(O)c1I)C(=O)c1c(O)c(I)c(O)c(I)c1C2=O; 8
2. Cc1c(Cl)c(O)c2c(c1Cl)C(=O)c1c(Cl)c(O)cc(O)c1C2=O; 8

*Q* Which MIC reading was recorded for the compound "Cc1cc(O)c2c(c1)C(=O)c1c(Br)c(O)c(Br)c(O)c1C2=O" ?
*A* 8
